Reference source for all entries: ChEMBL document CHEMBL1123913

tested on: Mus musculus; assay: Antagonistic activity against MES (Maximal Electroshock)-induced seizures after oral administration to mice; format: functional
What log10(ED50) was measured for each of the following?
Form field - Quantity: ED50; Unit: mg/kg; Scale: log10

molecule: Cc1cccc(C)c1NC(=O)c1ccc(N)cc1 [AMELTOLIDE]
assayedTarget: Mus musculus
log10(ED50): 0.23
//
molecule: CC(=O)Nc1ccc(C(=O)Nc2c(C)cccc2C)cc1
assayedTarget: Mus musculus
log10(ED50): 0.58
//
molecule: CC(=O)Nc1ccc(C(=O)Nc2c(C)cccc2C)cc1C
assayedTarget: Mus musculus
log10(ED50): 0.65
//
molecule: O=C1NC(=O)C(c2ccccc2)(c2ccccc2)N1
assayedTarget: Mus musculus
log10(ED50): 0.97

State log10(ED50) (Mus musculus) of CC(=O)Nc1c(C)cc(C(=O)Nc2c(C)cccc2C)cc1C .
2.23
